Source of measurements: PubChem BioAssay AID1578

- assay_procedure: NOD1 signaling inhibitors, primary screen, cell-based, luminescence, uHTS (AID 1578);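 note: HEK-293T reporter cells stimulated with the NOD1 agonist gamma-tri-DAP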
- test_conditions: NOD1-driven NF-kB luciferase reporter cells, at 4 µM, active compounds read high
Hit rate of the full screen: of about 290,000 compounds, about 3,000 (1%) were called active. The entries come from a sample that favours actives as a whole.
Recorded inhibition for the following molecules

Field: example entries. Status: answers known.
| molecule | inhibition |
| --- | --- |
| CC(=O)C(C)n1c(CN2CCN(C(=O)c3ccco3)CC2)nc2c1c(=O)n(C)c(=O)n2C (stereo not given) | -0.4% (inactive) |
| CCCn1c2ccccc2c2cnn(CC(=O)NC3CCCCC3)c(=O)c21 | -26.9% (inactive) |

stdin: Which measured inhibition value corresponds to Cc1ccc(C)c(OCC(O)CNC2CCCC2)c1 (stereo not given) ?
stdout: -40.4% (inactive)

stdin: Another molecule to look at: CCOc1cc(C(c2c(C)[nH][nH]c2=O)c2c(C)[nH][nH]c2=O)cc(Cl)c1O
stdout: 7.7% (inactive)

stdin: Here is the next molecule: Cc1[nH]oc(=O)c1N=Nc1c(Cl)cccc1Cl
stdout: -17% (inactive)

stdin: Could you do the same for O=C(N/N=C/c1ccc(-c2ccccc2)o1)c1ccccc1O , please?
stdout: -1.6% (inactive)

stdin: For O=C(CSc1nc2scc(-c3ccccc3)c2c(=O)[nH]1)NC1CCCCC1 then?
stdout: 67.6% (active)
